The measured values listed here are drawn from the supplement of paper PMC9112550.

- Test system: Escherichia coli TOP10;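 also: peptides expressed intracellularly from a pBAD plasmid library in pooled LB shake-flask culture, induced with 0.3% L-arabinose, DNA abundance read by NGS, three biological replicates, DESeq2 with apeglm shrinkage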
- protocol-text: shrunken log2 fold change of peptide-encoding DNA abundance (4.5 h post-induction vs induction); higher = less antimicrobial activity (less host growth inhibition)
- run-conditions: time post-induction: 4.5 h; library: site-saturation at positions 5, 18, 19, 20
outcome-measure: shrunken log2 fold change

RRIRFRPPRLPRPRPRPSGVPRP : 0.0832
RRIRKRPPRLPRPRPRPIKAPRP : 0.211
RRIRWRPPRLPRPRPRPNQEPRP : -0.119
RRIRWRPPRLPRPRPRPPVTPRP : 0.283
RRIRPRPPRLPRPRPRPMKFPRP : -0.248
RRIRGRPPRLPRPRPRPVYIPRP : -0.194
RRIRRRPPRLPRPRPRPVLMPRP : 0.146
RRIRCRPPRLPRPRPRPRFQPRP : 0.234
